Entry source: the supplement of paper PMC13380429

system: HepG2; assay: cell viability relative to DMSO; higher = less toxic; details: 72 h; 10000 nM
measure: cell viability (%)
Give bare numbers, in %.

Solved entries (count: 5):
{"columns": ["compound", "units", "cell viability"],
 "data": [
  ["C[C@H](NC(=O)C(C)(C)Oc1ccc(C(F)(F)F)cn1)[C@@H](Cc1ccc(Cl)cc1)c1cccc(C#N)c1", "%", 72.4],
  ["COc1ncc(-c2ccc3c(Nc4cc(Oc5cc(F)cc(F)c5)cc(C(=O)O)c4)c(S(=O)(=O)NC4CC4)cnc3c2)c(OC)n1", "%", 85.6],
  ["CC(C)c1noc(N2CCC(COc3ccc(-c4ccc(S(C)(=O)=O)cc4)nc3)CC2)n1", "%", 50.9],
  ["O[C@H]1[C@H]2[C@H](O)CCCN2C[C@H]1O", "%", 94.2],
  ["Cc1ccc(S(=O)(=O)OCC(=O)Nc2ccc(C(=O)O)c(O)c2)cc1", "%", 95.6]
]}

Items follow; give cell viability for each.
1. C[C@H](N)[C@H](O)c1cccc(O)c1
2. C[C@@H](Oc1ccc(Cl)cc1)c1ccnc2ncnn12
3. N[C@@]1(C(=O)O)CC[C@H]2[C@H](C(=O)O)[C@H]21
4. CN1CC(=O)N=C1NC(=O)Nc1cccc(Cl)c1
5. O=C(O)c1c2ccccc2cc2ccccc12
6. CC(N)Cc1c[nH]c2ccc(OCc3cccs3)cc12 (stereo not drawn)

# output
103
107
116
103
102
81

Please give cell viability for each item listed below.
1. N[C@@H](C(=O)O)c1ccc(C(=O)O)c(O)c1 (racemic) [4-carboxy-3-hydroxyphenylglycine-(RS)]
2. O=C(/C=C\n1cnc(-c2cc(C(F)(F)F)cc(C(F)(F)F)c2)n1)NNc1cnccn1 [selinexor]
3. O=C(Nc1c(Cl)cncc1Cl)c1ccc(OC(F)F)c(OCC2CC2)c1
4. N#CCC1(n2cc(-c3ncnc4[nH]ccc34)cn2)CN(C2CCN(C(=O)c3ccnc(C(F)(F)F)c3F)CC2)C1
5. Clc1ccc(N/N=C(\c2ccccc2)c2ccccn2)nc1
6. COc1cc(C)nc(-n2nc(C)cc2OC)n1 [epirizole]
7. Nc1ccc(-c2nc3ccc(-c4nc5ccc(N)cc5[nH]4)cc3[nH]2)cc1

# output
1: 98.7; 2: 24.5; 3: 128; 4: 91.6; 5: 21.6; 6: 97.8; 7: 54.6

====

Could you please report measured cell viability for the items listed next?
test system: U2OS; assay: cell viability relative to DMSO; higher = less toxic; details: 72 h; 100 nM
Numbers only, in %.

Worked cases, cell viability given:
{"columns": ["compound", "cell viability / %"],
 "data": [
  ["COc1ccc(C(=O)c2c(C)n(CCN3CCOCC3)c3cc(I)ccc23)cc1", 97.2],
  ["Nc1ccc(-c2nc3ccc(-c4nc5ccc(N)cc5[nH]4)cc3[nH]2)cc1", 100],
  ["N[C@H]1CCN(O)C1=O [HA-966-(S)-(-)]", 98.5],
  ["CCN(CC)CCOC(=O)c1cc(Cl)c(N)cc1OC", 97]
]}

Parameter requested: cell viability. Apply to each item below.
1. O=C(N[C@H]1CCN(C(=O)c2cc(C(F)(F)F)cc(C(F)(F)F)c2)[C@H](Cc2ccc(Cl)cc2)C1)c1ccnc2ccccc12
2. CC(C)(C)c1ccc(C(O)CCCN2CCC(C(O)(c3ccccc3)c3ccccc3)CC2)cc1 (stereo not drawn)

# output
[93.5, 96.5]

Below are some compounds; for each one, tell me its cell viability.
1. O=C(CCCCCCC(=O)Nc1cccnc1)NO [pyroxamide]
2. Cc1ccc2c(=O)c3ccccc3n(CCCN)c2c1C

# output
101
96.9

Hi! Can you tell me cell viability for each of these compounds?
1. O=C1C(=Cc2cccnc2)C(=O)c2ccccc21
2. O=C(N[C@@H](Cc1c[nH]c2ccccc12)C(=O)O)c1ccc(Cl)cc1
3. CC(=O)Nc1ccc(S(=O)(=O)Nc2ccc([N+](=O)[O-])cc2)cc1
4. C=C(C)CN1CC[C@]23c4c5ccc(O)c4O[C@H]2c2[nH]c4ccccc4c2C[C@@]3(O)C1C5 [SDM25N]
5. COc1ccc(COc2ccc(Cc3cnc(N)nc3N)cc2OC)cc1
6. CC1(C)CN2C(CS/C(=N\C3CCCCC3)NC3CCCCC3)=CSC2=N1
7. O=C(/C=C\n1cnc(-c2cc(C(F)(F)F)cc(C(F)(F)F)c2)n1)NNc1cnccn1 [selinexor]
8. COc1ccc(C(=O)c2c(C)n(CCN3CCOCC3)c3ccccc23)cc1

# output
1. 99.1
2. 94.3
3. 98.7
4. 100
5. 94.3
6. 102
7. 75.8
8. 95.5

State recorded cell viability for all listed compounds.
1. COc1cc(Br)c(S(=O)(=O)Nc2ccc(C(F)(F)F)c(O[C@@H]3CCN(C)C3)c2)cc1OC
2. Cc1cc(Nc2ncnc3ccc(-c4ccc(CNCCS(C)(=O)=O)o4)cc23)ccc1Oc1ccn2ncnc2c1

# output
95
100

====

test system: Caco-2; experiment: cell viability relative to DMSO; higher = less toxic; settings: 72 h; 100 nM
Please provide measured cell viability for the entries that follow.
One number for each entry, in %.

{"columns": ["molecule", "measure", "value"],
 "data": [
  ["CCN(CC)CCNC(=O)c1cc(Br)c(N)cc1OC [bromopride]", "cell viability", 97.4]
]}

Provide cell viability for all items below, preserving their order.
1. CC(C)(C)NCC(O)c1ccc(O)c(CO)c1 (stereo not given)
2. COc1ccc2[nH]c([S+]([O-])Cc3ncc(C)c(OC)c3C)nc2c1 (stereo not given) [omeprazole]
3. CC1Oc2cc(cnc2N)-c2c(nn(C)c2C#N)CN(C)C(=O)c2ccc(F)cc21 (stereo not given)
4. CCCc1c(OCC(O)COc2ccc3c(=O)cc(C(=O)O)oc3c2CCC)ccc(C(C)=O)c1O (stereo not given)

# output
1: 90.9; 2: 103; 3: 96.2; 4: 93.6

Each of the following entries comes with a recorded value; kindly state cell viability for each.
1. CN(C)c1ccccc1CN1CCCN(Cc2ccccc2N(C)C)C1c1ccncc1
2. CSc1ccc2c(c1)N(CCC1CCCCN1C)c1ccccc1S2 (stereo not given)
3. O=C(C1CCCCC1)N1CC(=O)N2CCc3ccccc3C2C1 (stereo not given)
4. OCc1cccnc1 [nicotinyl-alcohol-tartrate]
5. Cc1ccnc(NS(=O)(=O)c2ccc(N)cc2)n1

# output
[92.7, 105, 100, 102, 92]

====

system: A549-ACE2 infected with SARS-CoV-2; assay: cell count relative to DMSO; higher = less toxic; details: 3 µM; 24 h
Could you please report measured cell count for the items listed next?
Numbers only, in %.

{"columns": ["compound", "value"],
 "data": [
  ["CC[C@@H](C)CNCC(=O)N1CCc2sccc2[C@@H]1COc1cccc(C)c1 [RU-SKI-43]", 116],
  ["O=C(Nc1ccc(-c2ccncc2)cc1)N[C@H](CO)c1ccccc1", 91],
  ["Cc1ncc(NC(=O)c2ccc(CN3CCN(C)CC3)c(C(F)(F)F)c2)cc1Nc1nccc(-c2cccnc2)n1 [flumatinib]", 120],
  ["Clc1ccc(N/N=C(\\c2ccccc2)c2ccccn2)nc1 [JIB04]", 96]
]}

Let us examine a further case.
# input So what does the record say about cell count for CN(C)c1ccccc1CN1CCCN(Cc2ccccc2N(C)C)C1c1ccncc1 [GANT-61] ?
# output 110

====

tested on: Caco-2; test: cell viability relative to DMSO; higher = less toxic; details: 72 h; 1 nM
measure: cell viability (%)
One number for each entry, in %.

{"columns": ["molecule", "cell viability / %"],
 "data": [
  ["NS(=O)(=O)c1cc2c(cc1C(F)(F)F)NC(Cc1ccccc1)NS2(=O)=O (stereo unspecified) [bendroflumethiazide]", 96.6],
  ["COc1ccc(N(C)c2nc(C)nc3ccccc23)cc1 [verubulin]", 103],
  ["CCN(CC)CCOc1ccc2c(c1)C(=O)c1cc(OCCN(CC)CC)ccc1-2 [tilorone]", 102],
  ["Cc1nc2n(c(=O)c1CCN1CCC(c3noc4cc(F)ccc34)CC1)CCCC2O (stereo unspecified) [paliperidone]", 93.6],
  ["Clc1ccc(N/N=C(\\c2ccccc2)c2ccccn2)nc1 [JIB04]", 89.4]
]}

Turning now to a further record.
# input What value of cell viability on Caco-2 does O=C(N[C@H]1CCN(C(=O)c2cc(C(F)(F)F)cc(C(F)(F)F)c2)[C@H](Cc2ccc(Cl)cc2)C1)c1ccnc2ccccc12 [AV-608] have?
# output 89.3

====

tested on: Caco-2; test: cell viability relative to DMSO; higher = less toxic; conditions: 72 h; 1000 nM
Threshold 90%. cell viability below it: condition met. cell viability at it or above: condition not met.

Example results:
{"columns": ["molecule", "group"],
 "data": [
  ["CCCCCCCCN=c1ccn(CCCCCCCCCCn2ccc(=NCCCCCCCC)cc2)cc1 [octenidine]", "condition met"],
  ["COc1ccc(N(C)c2nc(C)nc3ccccc23)cc1 [verubulin]", "condition met"]
]}

Turning to the following molecule.
# input I'd appreciate it if you could check whether CCC(=O)c1cc(-c2ccc(Cl)cc2)n(-c2ccc(S(N)(=O)=O)cc2)c1C has cell viability smaller than 90%.
# output condition not met
